So I've got IC50 readings for hNAMPT protein (Homo sapiens (Human), UniProt P43490), take a look.
test-readout: IC50

> print(dat)
                                    compound   test.result
 1  CCOc1cc(-c2ccc(F)cc2)nc2cc(C(=O)NCc3ccc4ncnn4c3)ccc12       < 10 nM
 2  CCOc1nc(-c2ccc(Cl)s2)nc2cc(C(=O)NCCCc3ncc[nH]3)ccc12       < 10 nM
 3  CCOc1cc(-c2ccc(F)cc2)nc2cc(C(=O)NCCc3cn(C)cn3)ccc12  50 to 100 nM
 4  CCOc1cc(-c2ccc(F)cc2)nc2cc(C(=O)NCCCc3c[nH]nc3C)ccc12       < 10 nM
 5  CCOc1nc(-c2ccc(F)cc2)nc2cc(C(=O)NCCCc3cncnc3)ccc12       < 10 nM
 6  CCOc1cc(-c2cc(OC)ncc2F)nc2cc(C(=O)NCc3nc4cnccc4[nH]3)ccc12       < 10 nM
 7  CCOc1cc(-c2cc(C)cnc2OC)nc2cc(C(=O)NCCCc3nnc[nH]3)ccc12   10 to 50 nM
 8  CCOc1cc(-c2cnc(OC)c(F)c2)nc2cc(C(=O)NCCCc3nnc[nH]3)ccc12   10 to 50 nM
 9  COCCOc1cc(-c2ccc(F)cc2)nc2cc(C(=O)NCCCc3ncn[nH]3)ccc12  50 to 100 nM
10  CCCc1nc(-c2ccc(F)cc2)nc2cc(C(=O)NCCCc3ncc[nH]3)ccc12       < 10 nM
11  CCOc1cc(-c2ccc(F)cc2)nc2cc(C(=O)NCC(F)(F)Cc3nnc[nH]3)ccc12      > 100 nM
12  CCOc1cc(-c2ccc(OC)nc2)nc2cc(C(=O)NCCCc3cnn[nH]3)ccc12       < 10 nM
13  CCOc1cc(-c2ccnc(OC)c2)nc2cc(C(=O)NCCCc3nnc[nH]3)ccc12   10 to 50 nM
14  CCOc1cc(-c2ccc(F)cc2)nc2cc(C(=O)NCc3nc4ccccc4[nH]3)ccc12       < 10 nM
15  CCOc1cc(-c2ccc(OC)nc2)nc2cc(C(=O)NCCCc3ccn[nH]3)ccc12   10 to 50 nM
16  CCOCc1nc(-c2ccc(Cl)cc2)nc2cc(C(=O)NCCCc3ncc[nH]3)ccc12   10 to 50 nM
17  COCCOc1cc(-c2ccnc(C)c2)nc2cc(C(=O)NCc3ccn4ncnc4c3)ccc12      > 100 nM
18  CCOc1cc(-c2ccc(C)nc2)nc2cc(C(=O)NCCCc3[nH]nnc3C)ccc12   10 to 50 nM
19  CCOc1cc(-c2ccc(C)nc2)nc2cc(C(=O)NCCc3c[nH]nn3)ccc12   10 to 50 nM
20  CCOc1cc(-c2ccc(F)cc2)nc2cc(C(=O)NCCCc3cnn[nH]3)ccc12       < 10 nM
21  Cc1cc(-c2nc(-c3ccc(F)cc3)nc3cc(C(=O)NCCCc4nnc[nH]4)ccc23)ccn1   10 to 50 nM
22  CCCc1cc(-c2ccc(F)cc2)nc2cc(C(=O)NCCCc3ncc[nH]3)ccc12       < 10 nM
23  CCOc1cc(-c2cccnc2OC)nc2cc(C(=O)NCCCc3ccn[nH]3)ccc12   10 to 50 nM
24  CCCc1nc(-c2ccc(Cl)cc2)nc2cc(C(=O)NCc3nc4ccncc4[nH]3)ccc12       < 10 nM
25  CCOc1cc(-c2ccc(F)cc2)nc2cc(C(=O)NCCCc3cc[nH]n3)ccc12       < 10 nM
26  CCOc1cc(-c2ccc(C)nc2OC)nc2cc(C(=O)NCCCc3cnn[nH]3)ccc12   10 to 50 nM
27  COc1nc(-c2ccc(Cl)cc2)nc2cc(C(=O)NCCCc3ncc[nH]3)ccc12       < 10 nM
28  CCOc1cc(-c2ccc(F)cc2)nc2cc(C(=O)NCc3cc4[nH]ncc4s3)ccc12       < 10 nM
29  CCOc1cc(-c2ccnc(C)c2)nc2cc(C(=O)NCc3ccn4ncnc4c3)ccc12       < 10 nM
30  CCOc1nc(-c2ccc(F)cc2)nc2cc(C(=O)NCC(C)Cc3ncc[nH]3)ccc12 (centres unmarked)   10 to 50 nM
31  CCOc1cc(-c2cc(F)ccc2OC)nc2cc(C(=O)NCCc3nnc[nH]3)ccc12      > 100 nM
32  CCOc1cc(-c2ccnc(OC)c2)nc2cc(C(=O)NCCCc3ccn[nH]3)ccc12   10 to 50 nM

###

// viability at 1.667 µM lookup, one value per entry
Tested on: PC3 cells
method-notes: PC3 growth inhibition (Cell-titer glo, 72 hours)
Format: cell-based
experimental-setup: Homo sapiens, PC-3, 72 h, read-out: Percent Viability, PC3 cells, compound concentration 1.667 μM, 72 hours
test-readout: viability at 1.667 µM (%)

> print(dat)
                                input.smiles  bound.operator  test.result
 1  CCOc1cc(-c2ccc(F)cc2)nc2cc(C(=O)N[C@@H](C)c3nc4cnccc4[nH]3)ccc12               >           99
 2  CCOc1cc(-c2ccc(F)cc2)nc2cc(C(=O)NCCc3nn[nH]n3)ccc12               =           89
 3  CCOc1cc(-c2ccc(OC)nc2)nc2cc(C(=O)NCCc3cn[nH]c3C)ccc12               =            2
 4  CCOc1cc(-c2cnn(C)c2)nc2cc(C(=O)NCCCc3nnc[nH]3)ccc12               =            2
 5  CCOc1cc(-c2ccc(Cl)cc2)nc2cc(C(=O)NCCCc3ncc[nH]3)ccc12               =            0
 6  COc1cc(-c2nc(-c3ccc(F)cc3)nc3cc(C(=O)NCCCc4ncc[nH]4)ccc23)ccn1               =            1
 7  CCOc1cc(-c2ccc(Cl)s2)nc2cc(C(=O)NCCc3cnn[nH]3)ccc12               =            4
 8  CCOc1cc(-c2ccc(F)cc2)nc2cc(C(=O)NCCCc3nnc(N)[nH]3)ccc12               =            2
 9  CCOc1cc(-c2ccc(Cl)cc2)nc2cc(C(=O)NCCCc3nnc[nH]3)ccc12               =            3
10  CCOc1cc(-c2ccc(F)cc2OC)nc2cc(C(=O)NCCc3cnn[nH]3)ccc12               =            3
11  CCCc1nc(-c2ccc(F)cc2)nc2cc(C(=O)NCCCc3ncc[nH]3)ccc12               =            0
12  CCOc1cc(-c2ccc(F)cc2OC)nc2cc(C(=O)NCCc3c[nH]nc3C)ccc12               =            2
13  COCCOc1cc(-c2ccc(F)cc2)nc2cc(C(=O)NCCCc3ncn[nH]3)ccc12               =            2
14  CCOc1cc(-c2ccc(OC)nc2C)nc2cc(C(=O)NCCCc3nnc[nH]3)ccc12               =            2
15  CCOc1cc(-c2cc(F)ccc2OC)nc2cc(C(=O)NCCCc3nnc[nH]3)ccc12               =            2
16  CCOc1cc(-c2ccc(F)cc2)nc2cc(C(=O)N[C@H]3C[C@@H](c4nnc[nH]4)C3)ccc12               =            4

###

// inhibition at 1 µM lookup, one value per entry
experimental-system: hNAMPT protein (Homo sapiens (Human))
Sequence (P43490 whole entry): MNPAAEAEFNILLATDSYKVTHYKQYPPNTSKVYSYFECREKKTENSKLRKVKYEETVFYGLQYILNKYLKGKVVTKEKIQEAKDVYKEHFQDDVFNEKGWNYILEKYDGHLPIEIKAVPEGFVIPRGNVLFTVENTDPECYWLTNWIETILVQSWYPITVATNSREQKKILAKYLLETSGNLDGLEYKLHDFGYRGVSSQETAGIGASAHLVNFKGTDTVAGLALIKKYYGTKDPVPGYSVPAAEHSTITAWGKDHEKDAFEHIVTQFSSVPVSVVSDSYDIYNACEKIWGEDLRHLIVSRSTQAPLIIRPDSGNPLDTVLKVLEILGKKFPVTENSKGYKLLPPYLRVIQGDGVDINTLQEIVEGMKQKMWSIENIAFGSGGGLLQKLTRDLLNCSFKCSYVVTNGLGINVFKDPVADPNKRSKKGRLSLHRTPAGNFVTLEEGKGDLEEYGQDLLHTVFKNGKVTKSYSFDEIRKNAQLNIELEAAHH
method-notes: NAMPT enzyme assay (TR-FRET/HTRF with BodiPY ligand)
Assay type: binding
experimental-setup: NAMPT inhibition at compound concentration 1 μM; read-out: Percent Inhibition
test-readout: inhibition at 1 µM (%)

> print(dat)
                                    compound  test.result
 1  CCOc1cc(-c2ccc(C)nc2OC)nc2cc(C(=O)NCCc3[nH]nnc3C)ccc12 [Compound I-87]           94
 2  CCCc1cc(-c2ccc(F)cc2)nc2cc(C(=O)NCCc3c[nH]nc3C)ccc12 [Compound I-152]           84
 3  CC[C@@H](F)c1nc(-c2ccc(Cl)cc2)nc2cc(C(=O)NCCCc3ncc[nH]3)ccc12 (stereo in doubt) [Compound I-72]           98
 4  CCNc1cc(OCC)c2ccc(C(=O)NCCCc3ncc[nH]3)cc2n1 [Compound I-42]           83
 5  CCCc1nc(-c2ccc(Cl)cc2)nc2cc(C(=O)N[C@H]3C[C@@H](c4ncc[nH]4)C3)ccc12 [Compound I-3]           94
 6  CCOc1cc(-c2ccc(C)nc2)nc2cc(C(=O)NCCCc3cnn[nH]3)ccc12 [Compound I-110]          100
 7  O=C(NCCCc1ncc[nH]1)c1ccc2c(-c3ccc(F)cc3)nc(-c3ccc(Cl)cc3)nc2c1 [Compound I-57]           99
 8  CCOc1nc(-c2ccc(F)cc2)nc2cc(C(=O)NCCCc3ccnnc3)ccc12 [Compound I-29]          100
 9  CCOc1cc(-c2ccnc(OC)c2)nc2cc(C(=O)NCCCc3ccn[nH]3)ccc12 [Compound I-155]           98
10  CCOc1cc(-c2cccnc2OC)nc2cc(C(=O)NCc3nc4ccncc4[nH]3)ccc12 [Compound I-192]          100
11  CCOc1cc(SCC)nc2cc(C(=O)NCCCc3ncc[nH]3)ccc12 [Compound I-49]           98
12  COCCOc1cc(-c2ccnc(C)c2)nc2cc(C(=O)NCc3ccn4ncnc4c3)ccc12 [Compound I-69]           86
13  CC(C)Oc1cc(-c2ccc(F)cc2)nc2cc(C(=O)NCCCc3ncc[nH]3)ccc12 [Compound I-17]           99
14  CCOc1cc(-c2ccn(C)c(=O)c2)nc2cc(C(=O)NCCCc3nnc[nH]3)ccc12 [Compound I-118]           99
15  CCOc1cc(-c2cc(F)ccc2OC)nc2cc(C(=O)NCCCc3nnc[nH]3)ccc12 [Compound I-199]          100
16  CCOc1cc(-c2ccc(F)cc2)nc2cc(C(=O)NCCc3ccc(C#N)cc3)ccc12 [Compound I-47]           47
